pIC50: −log10 of the molar value.
We begin with pIC50 values for UniProtKB P00734, as collected from the published literature.
Decision: pIC50 compared against 5; not below it gives 1 (yes), below it gives 0 (no).

[
  {
    "compound": "CC(C)[C@H](NC(=O)[C@H](Cc1cccnc1)NC(=O)N[C@H](C)c1ccc(Br)cc1)C(=O)N[C@@H](CCCNC(=N)N)C(=O)c1nccs1",
    "category label": "1 (yes)"
  }
]

Can `N=C(N)NCCC[C@@H](NC(=O)CN1CCN(C(=O)c2ccc(Cl)cc2)CC1=O)C(=O)c1nccs1` be said to have pIC50 at or above 5? 1 (yes)

Can `CC1(C)OB(c2ccc(CCN=C(N)N)cc2)OC1(C)C.O=C(O)C(F)(F)F` be said to have pIC50 at or above 5? 0 (no)

Can CCOC(=O)C(Cc1ccccc1)NC(=O)NN[C@@H](Cc1ccccc1)C(=O)N[C@H](C(=O)N[C@@H](CCCNC(=N)N)C(=O)c1nccs1)C(C)C (some centres not stated) be said to have pIC50 at or above 5? 1 (yes)
